FYI, the data here is from ChEMBL document CHEMBL4689842.

- System: Fibroblast
- assay-comment: Multiplex assay against human fibroblast
- Format: toxicity, cell-based
- experimental-conditions: 12 h, 1 µM, compound concentration 1 uM, replicate 2
property-name: Population Tubulin-Different-Phenotype (%)
Write the value in % as a bare number.

Some solved entries appear below for comparison.
COc1cc(-n2cnc3cc(-c4ccc(Cl)cc4)sc3c2=O)ccc1OCCN1CCCC1 ... 34
COc1cccc([C@@H](C)NCCCc2ccccc2Cl)c1.Cl [TECALCET HYDROCHLORIDE] ... 18
OC1(c2ccc(Cl)cc2)CCN(Cc2c[nH]c3ccccc23)CC1 ... 9
Cn1cc(-c2[nH]c3cc(NC(=O)[C@H](N)C4CCCCC4)cc4c3c2C=NNC4=O)cn1 ... 12
CNc1nc(NCc2ccc(NS(C)(=O)=O)cc2Cl)cc(-c2ccccn2)n1 ... 11
Cc1[nH]c(/C=C2\C(=O)Nc3ccc(S(=O)(=O)N(C)c4cccc(Cl)c4)cc32)c(C)c1C(=O)N1CCN(C)CC1 ... 68

Now for a further compound.
Record CN(C)C(=O)/C(C#N)=C/c1ccc(-c2nc3cnc4[nH]ccc4c3n2C2CCCCC2)o1 . Reported Population Tubulin-Different-Phenotype (%): 24

---

Documented Population Apoptotic (%) across a set of compounds
- Tested on: U2OS
- assay-comment: Multiplex assay against U2OS
- Assay type: toxicity, cell-based
- experimental-conditions: human, 24 h, 1 µM, compound concentration 1 uM, replicate 1

Some solved entries appear below for comparison.
Cc1nc(Nc2n[nH]c3c2CN(C(=O)N[C@H](CN(C)C)c2ccccc2)C3(C)C)c2sccc2n1 ... 58%
c1cn2cc(-c3ccc4cn[nH]c4c3)nc(Nc3ccc(N4CCOCC4)cc3)c2n1 ... 37%
CN1CCC[C@@H]1CCO[C@](C)(c1ccccc1)c1ccc(Cl)cc1.O=C(O)/C=C/C(=O)O [CLEMASTINE FUMARATE] ... 55%
Cn1cc(-c2[nH]c3cc(NC(=O)[C@H](N)C4CCCCC4)cc4c3c2C=NNC4=O)cn1 ... 46%

Record CNCc1ccc(-c2cc(-c3nc(-c4ccc(S(=O)(=O)C(C)C)cc4)cnc3N)on2)cc1 . Reported Population Apoptotic (%): 50%

Record CN1CCCC(n2nc(Cc3ccc(Cl)cc3)c3ccccc3c2=O)CC1.Cl (stereo not drawn) [AZELASTINE HYDROCHLORIDE] . Reported Population Apoptotic (%): 33%

Record CC(C)(O)CNc1ncc(-c2ccnc(Nc3ccnc(Cl)c3)n2)c(CC2CC2)n1 . Reported Population Apoptotic (%): 35%

Record CCN(CC)CCCCNc1ncc2cc(-c3cc(OC)cc(OC)c3)c(NC(=O)NC(C)(C)C)nc2n1 . Reported Population Apoptotic (%): 70%

---

- Test system: HEK-293T
- assay-comment: Multiplex assay against HEK293T
- Format: toxicity, cell-based
- experimental-conditions: human, 24 h, 1 µM, compound concentration 1 uM, replicate 2
Documented Population Normal (%) across a set of compounds
Write the value in % as a bare number.

Some solved entries appear below for comparison.
CCN(CC)CCCCNc1ncc2cc(-c3cc(OC)cc(OC)c3)c(NC(=O)NC(C)(C)C)nc2n1 ... 39
Cc1nc(-c2cn3c(n2)-c2ccc(-c4cnn(C(C)(C)C(N)=O)c4)cc2OCC3)n(C(C)C)n1 ... 89

Now for a further compound.
Record Cc1cc(C)cc(-c2cnc3cc(Cl)c(-c4cccc(O)c4)cc3c2OCCCN)c1 . Reported Population Normal (%): 97

---

- Tested on: HEK-293T
- assay-comment: Multiplex assay against HEK293T
- Assay type: toxicity, cell-based
- experimental-conditions: human, 12 h, 1 µM, compound concentration 1 uM, replicate 2
API: label(entry) gives criterion met if the entry's Population Fragmented Nuclei (%) is strictly smaller than 6%; on equality or larger values it gives criterion not met.

Cc1nc(-c2cn3c(n2)-c2ccc(-c4cnn(C(C)(C)C(N)=O)c4)cc2OCC3)n(C(C)C)n1 ... criterion met
c1cn2cc(-c3ccc4cn[nH]c4c3)nc(Nc3ccc(N4CCOCC4)cc3)c2n1 ... criterion met

Prompt: In the record for C=CC(=O)Nc1cc2c(Nc3ccc(F)c(Cl)c3)ncnc2cc1OCCCN1CCOCC1.Cl.Cl [CANERTINIB DIHYDROCHLORIDE] , is Population Fragmented Nuclei (%) less than 6%?
Completion: criterion met

Prompt: In the record for CN1CCN(c2ccc(OC(F)(F)F)c(Nc3ncc4c(n3)-c3c(c(C(N)=O)nn3CCO)CC4)c2)CC1 , is Population Fragmented Nuclei (%) less than 6%?
Completion: criterion not met

Prompt: In the record for Cc1nc(-c2ccc(-c3ccc(C(=O)N4CCc5cc6c(cc54)C4(CCN(C)CC4)CO6)cc3)c(C)c2)no1 , is Population Fragmented Nuclei (%) less than 6%?
Completion: criterion met

Prompt: In the record for CCN(CC)CCCCNc1ncc2cc(-c3cc(OC)cc(OC)c3)c(NC(=O)NC(C)(C)C)nc2n1 , is Population Fragmented Nuclei (%) less than 6%?
Completion: criterion not met

---

- Tested on: U2OS
- assay-comment: Multiplex assay against U2OS
- Type: toxicity, cell-based
- experimental-conditions: human, 24 h, 10 µM, compound concentration 10 uM, replicate 1
property-name: Total Cell Count
Number only, no unit.

Record CCN(CC)CCCCNc1ncc2cc(-c3cc(OC)cc(OC)c3)c(NC(=O)NC(C)(C)C)nc2n1 [PD-173074] . Reported Total Cell Count: 202

Record CNc1nc(NCc2ccc(NS(C)(=O)=O)cc2Cl)cc(-c2ccccn2)n1 . Reported Total Cell Count: 113

Record CC[C@H](C)C(=O)O[C@H]1C[C@@H](C)C=C2C=C[C@H](C)[C@H](CC[C@@H]3C[C@@H](O)CC(=O)O3)[C@H]21 [LOVASTATIN] . Reported Total Cell Count: 204

Record COc1cccc([C@@H](C)NCCCc2ccccc2Cl)c1.Cl [TECALCET HYDROCHLORIDE] . Reported Total Cell Count: 61

---

- Tested on: HEK-293T
- assay-comment: Multiplex assay against HEK293T
- Assay type: toxicity, cell-based
- experimental-conditions: human, 12 h, 10 µM, compound concentration 10 uM, replicate 2
Would you mind labelling by Population Fragmented Nuclei (%)? At or over 4% is yes (1), under is no (0).

Study these solved cases before continuing.
CN(C)CC#Cc1ccc(OCCCc2sc(N3CCc4cccc(C(=O)Nc5nc6ccccc6s5)c4C3)nc2C(=O)O)c(F)c1 [A-1155463] ... yes (1)
CC(C)NCC(O)COc1ccc(CCOCC2CC2)cc1.Cl (configuration not stated) [BETAXOLOL HYDROCHLORIDE] ... no (0)
c1cn2cc(-c3ccc4cn[nH]c4c3)nc(Nc3ccc(N4CCOCC4)cc3)c2n1 [ENTOSPLETINIB] ... yes (1)
CCN(CC)CCCCNc1ncc2cc(-c3cc(OC)cc(OC)c3)c(NC(=O)NC(C)(C)C)nc2n1 [PD-173074] ... yes (1)

Here is the next item to consider.
Prompt: Kindly determine if Population Fragmented Nuclei (%) recorded for CC[C@H](C)C(=O)O[C@H]1C[C@@H](C)C=C2C=C[C@H](C)[C@H](CC[C@@H]3C[C@@H](O)CC(=O)O3)[C@H]21 [LOVASTATIN] is above or exactly 4%.
Completion: yes (1)

---

- System: U2OS
- assay-comment: Multiplex assay against U2OS
- Type: toxicity, cell-based
- experimental-conditions: human, 12 h, 1 µM, compound concentration 1 uM, replicate 1
Would you mind labelling by Population Mitotic Cells (%)? At or over 50% is True, under is False.

OC1(c2ccc(Cl)cc2)CCN(Cc2c[nH]c3ccccc23)CC1 ... False
CC[C@H](C)C(=O)O[C@H]1C[C@@H](C)C=C2C=C[C@H](C)[C@H](CC[C@@H]3C[C@@H](O)CC(=O)O3)[C@H]21 ... True
CN(C)CC#Cc1ccc(OCCCc2sc(N3CCc4cccc(C(=O)Nc5nc6ccccc6s5)c4C3)nc2C(=O)O)c(F)c1 ... False

Prompt: Kindly determine if Population Mitotic Cells (%) recorded for CC(C)(O)CNc1ncc(-c2ccnc(Nc3ccnc(Cl)c3)n2)c(CC2CC2)n1 is above or exactly 50%.
Completion: True

Prompt: Kindly determine if Population Mitotic Cells (%) recorded for CCN(CC)CCCCNc1ncc2cc(-c3cc(OC)cc(OC)c3)c(NC(=O)NC(C)(C)C)nc2n1 is above or exactly 50%.
Completion: False

Prompt: Kindly determine if Population Mitotic Cells (%) recorded for CC(C)NCC(O)COc1ccc(CCOCC2CC2)cc1.Cl (stereo not drawn) [BETAXOLOL HYDROCHLORIDE] is above or exactly 50%.
Completion: False

---

Documented Growth Rate across a set of compounds
- Tested on: U2OS
- assay-comment: Incucyte cell viability with U2OS; further: filed as whole numbers so only -1 and 0 and 1 occur
- Type: toxicity, cell-based
- experimental-conditions: human, 0 h, 10 µM, compound concentration 10 uM, replicate number 1, timepoint 0 hours
Number only, no unit.

Some solved entries appear below for comparison.
CC[C@@H]1[C@H](F)C(=O)N[C@@H]1COc1nccc2cc(C(N)=O)c(OC)cc12 ... 0
COc1ccc2cc(OCC3(C(=O)O)CN(C(=O)c4ccc(F)cc4)C3)ccc2c1 ... 0
CCC(=O)N1CCOc2c(cc(-c3ccc(OC)c(OC)c3)cc2OC[C@H]2CCCN(C)C2)C1 ... 0

Record NC(=O)Nc1cc(-c2cccc(F)c2)sc1C(=O)N[C@H]1CCCNC1 . Reported Growth Rate: 0

Record Cc1c(C(=O)NC2CCCCC2)sc2nc3ccc(N)cc3n12.Cl . Reported Growth Rate: 0

Record O=C(/C=C/N1C[C@H]2C[C@@H]1CN2c1ccccn1)c1ccccc1O . Reported Growth Rate: 0

Record CC(C)(C)NCC(O)COc1cccc2[nH]c(=O)[nH]c12.Cl (stereo not drawn) . Reported Growth Rate: 0

Record COc1cc2nccc(Oc3ccc(NC(=O)Nc4cc(C)on4)c(Cl)c3)c2cc1OC.O . Reported Growth Rate: 1

Record COc1cccc([C@@H](C)NCCCc2ccccc2Cl)c1.Cl [TECALCET HYDROCHLORIDE] . Reported Growth Rate: 0

Record Cc1nc(Nc2n[nH]c3c2CN(C(=O)N[C@H](CN(C)C)c2ccccc2)C3(C)C)c2sccc2n1 . Reported Growth Rate: 1

Record Cc1nc(-c2cn3c(n2)-c2ccc(-c4cnn(C(C)(C)C(N)=O)c4)cc2OCC3)n(C(C)C)n1 . Reported Growth Rate: 0

Record N#Cc1ccc(NC(=O)Nc2ccccc2Br)c2nn[nH]c12 . Reported Growth Rate: 0
